- tested.system: Mtb DNA topoisomerase I (Mycobacterium tuberculosis, UniProt P9WG49)
- Sequence (P9WG49 whole entry): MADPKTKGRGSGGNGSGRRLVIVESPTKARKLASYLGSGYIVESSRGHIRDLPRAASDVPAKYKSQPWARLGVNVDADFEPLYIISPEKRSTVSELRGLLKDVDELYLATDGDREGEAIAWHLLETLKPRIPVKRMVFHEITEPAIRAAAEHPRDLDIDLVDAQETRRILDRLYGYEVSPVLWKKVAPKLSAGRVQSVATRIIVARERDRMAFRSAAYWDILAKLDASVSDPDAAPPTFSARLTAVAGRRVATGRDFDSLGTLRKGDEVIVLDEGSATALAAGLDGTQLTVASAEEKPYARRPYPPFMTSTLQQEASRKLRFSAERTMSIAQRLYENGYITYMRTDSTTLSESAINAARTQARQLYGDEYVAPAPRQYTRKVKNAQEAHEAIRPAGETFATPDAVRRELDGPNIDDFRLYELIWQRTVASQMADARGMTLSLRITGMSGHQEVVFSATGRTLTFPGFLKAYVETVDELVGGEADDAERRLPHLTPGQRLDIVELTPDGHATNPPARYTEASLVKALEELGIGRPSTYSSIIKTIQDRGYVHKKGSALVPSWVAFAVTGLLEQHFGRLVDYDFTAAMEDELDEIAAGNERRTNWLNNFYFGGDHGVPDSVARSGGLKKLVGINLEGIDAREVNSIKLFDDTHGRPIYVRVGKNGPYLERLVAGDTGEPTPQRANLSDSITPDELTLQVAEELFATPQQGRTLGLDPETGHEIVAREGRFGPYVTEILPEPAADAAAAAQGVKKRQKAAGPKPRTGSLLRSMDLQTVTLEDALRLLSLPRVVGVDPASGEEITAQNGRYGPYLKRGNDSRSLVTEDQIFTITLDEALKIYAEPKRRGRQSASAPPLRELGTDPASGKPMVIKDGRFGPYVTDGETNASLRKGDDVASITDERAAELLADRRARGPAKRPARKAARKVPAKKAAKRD
- Format: biochemical
Would you mind telling me the reported fluorescence, HTS screening of 50-compound library for Mtb DNA topoisomerase 1 inhibitors of each entry?

Let me know recorded fluorescence, HTS screening of 50-compound library for Mtb DNA topoisomerase 1 inhibitors for Cc1ncc(C[n+]2csc(CCO)c2C)c(N)n1 [Vitamine B1] , thanks. 1224

Let me know recorded fluorescence, HTS screening of 50-compound library for Mtb DNA topoisomerase 1 inhibitors for NC[C@H]1O[C@H](O[C@H]2[C@H](O)[C@@H](O[C@H]3O[C@H](CO)[C@@H](O)[C@H](N)[C@H]3O)[C@H](N)C[C@@H]2N)[C@H](O)[C@@H](O)[C@@H]1O [kanamycin] , thanks. 1466

Let me know recorded fluorescence, HTS screening of 50-compound library for Mtb DNA topoisomerase 1 inhibitors for Nc1ccc(S(N)(=O)=O)cc1 [sulfanilamide] , thanks. 1523

Let me know recorded fluorescence, HTS screening of 50-compound library for Mtb DNA topoisomerase 1 inhibitors for NCC(=O)O [Glycine] , thanks. 1321

Let me know recorded fluorescence, HTS screening of 50-compound library for Mtb DNA topoisomerase 1 inhibitors for c1ccncc1 [pyridine] , thanks. 1380

Let me know recorded fluorescence, HTS screening of 50-compound library for Mtb DNA topoisomerase 1 inhibitors for O=C(O)c1cn(C2CC2)c2cc(N3CCNCC3)c(F)cc2c1=O [Ciprofloxacin] , thanks. 1493
